Tested on: anti-D-VMA antibody
experimental protocol: Cross-reactivity of anti-D-VMA monoclonal antibodies with acidic catecholamine metabolites (competitive enzyme immunoassay)
Format: binding, mouse
experimental setup: reactivity with D-VMA defined as 100%; from concentration ratios at 50% inhibition on standard curves
parameter measured: Antibody Reactivity (% by weight)

INSERT INTO measurements (compound, scale_unit, value_modifier, observed) VALUES
  ('CNCC(O)c1ccc(O)c(OC)c1 (centres unmarked)', '% by weight', '<', 0.01),
  ('COc1cc(CC(=O)O)ccc1O', '% by weight', '<', 0.01),
  ('COc1cc([C@@H](O)C(=O)O)ccc1O', '% by weight', '=', 100),
  ('O=C(O)Cc1ccc(O)c(O)c1 [3,4-Dihydroxyphenylacetic acid (DOPAC), 3,4-Dihydroxyphenylacetic acid]', '% by weight', '<', 0.01),
  ('COc1cc([C@H](O)C(=O)O)ccc1O', '% by weight', '<', 1),
  ('COc1cc(C(O)C(=O)O)ccc1O (racemic)', '% by weight', '=', 50),
  ('O=C(O)C(O)c1ccc(O)c(O)c1 (centres unmarked) [3,4-Dihydroxymandelic acid (DOMA), 3,4-Dihydroxymandelic acid]', '% by weight', '=', 4),
  ('COc1cc(CC(=O)C(=O)O)ccc1O', '% by weight', '=', 4);
